target.under.test: AVP-V1 sites (Rattus norvegicus)
Construct: crude membrane preparation of male rat liver (AVP-V1 sites); from tissue; host or cells: male rat liver, crude membranes
Sequence (P30560 whole entry): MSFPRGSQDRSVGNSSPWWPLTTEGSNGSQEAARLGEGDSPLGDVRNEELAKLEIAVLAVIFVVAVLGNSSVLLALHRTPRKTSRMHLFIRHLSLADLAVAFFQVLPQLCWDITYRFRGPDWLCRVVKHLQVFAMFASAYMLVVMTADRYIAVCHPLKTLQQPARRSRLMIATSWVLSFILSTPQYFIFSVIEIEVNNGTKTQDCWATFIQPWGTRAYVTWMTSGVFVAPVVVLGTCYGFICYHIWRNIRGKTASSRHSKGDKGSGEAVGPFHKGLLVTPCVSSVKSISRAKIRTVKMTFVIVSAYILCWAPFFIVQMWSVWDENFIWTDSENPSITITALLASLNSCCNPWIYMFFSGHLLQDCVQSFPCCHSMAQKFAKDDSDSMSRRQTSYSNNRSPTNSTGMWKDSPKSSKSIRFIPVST
experiment.description: [^3 H]AVP binding to crude membrane preparation of male rat liver (AVP-V1 sites)
applied.conditions: Receptor Binding Results IC50 (nM) [^3 H]-AVP-V1
Method: Nonspecific binding (5-10% of the total binding) was determined using 10 μM unlabeled AVP, and the binding reaction was terminated by filtration as described above for the [^3 H]OT binding assay.
Square brackets hold non-standard residues; d marks the D form. Peptide text beside a SMILES is read from it. * marks the point of attachment. dPip(4-aza,4-Cbz) = O=C(O)[C@H]1CN(C(=O)OCc2ccccc2)CCN1; Pip = O=C(O)[C@@H]1CCCCN1; dPip = O=C(O)[C@H]1CCCCN1; Cbz = O=C(OCc1ccccc1)*; OtBu = CC(C)(C)O*

compound	IC50
CC[C@H](C)[C@@H]1NC(=O)[C@@H](Cc2ccccc2)NC(=O)[C@@H]2CCCN2C(=O)[C@@H](Cc2c[nH]cn2)NC(=O)[C@H]2CN(C(=O)OCc3ccccc3)CCN2C(=O)[C@H]2CCCCN2C1=O [Example 82] (cyclo(I[dPip][dPip(4-aza,4-Cbz)][dH]P[dF]))	10000 nM
CC[C@H](C)[C@@H]1NC(=O)[C@@H](Cc2c[nH]c3ccccc23)NC(=O)[C@@H]2CCCN2C(=O)[C@@H](Cc2c[nH]c3ccccc23)NC(=O)[C@H](CCCCNC(=O)OCc2ccccc2)NC(=O)[C@H]2CCCCN2C1=O [Example 29] (cyclo(I[dPip]K(Cbz)[dW]P[dW]))	> 10000 nM
CC[C@H](C)[C@@H]1NC(=O)[C@@H](Cc2c[nH]c3ccccc23)NC(=O)[C@@H]2CCCN2C(=O)[C@@H](CC(=O)OC(C)(C)C)NC(=O)[C@@H]2CCCCN2C(=O)[C@H]2CCCCN2C1=O [Example 172] (cyclo(I[dPip][Pip][dD](OtBu)P[dW]))	> 10000 nM

====

Parameter IC50: see the listing below.
target.under.test: uterine OT receptors (Rattus norvegicus, UniProt P70536)
Construct: from tissue; host or cells: uterus of DES-treated rats, crude membranes
experiment.description: [^3 H]OT binding to uterine OT receptors, crude membrane preparation of uteri from DES-treated rats
applied.conditions: rat uterus membranes, 1 nM [^3 H]OT; read-out: Receptor Binding Results IC50 (nM) [^3 H]OT
Square brackets hold non-standard residues; d marks the D form. Peptide text beside a SMILES is read from it. * marks the point of attachment. Pip = O=C(O)[C@@H]1CCCCN1; dPip = O=C(O)[C@H]1CCCCN1; Bn = c1ccc(C*)cc1

molecule	IC50
C[C@@H](O)[C@@H]1NC(=O)[C@@H](Cc2ccccc2)NC(=O)[C@@H]2CCCN2C(=O)[C@@H](Cc2ccccc2)NC(=O)[C@@H]2CCCN2C(=O)[C@H]2CCCN2C1=O [Example 73] (cyclo([dF]P[dF]T[dP]P))	> 10000 nM
CC[C@H](C)[C@@H]1NC(=O)[C@@H](C)NC(=O)[C@@H]2CCCN2C(=O)[C@@H](Cc2ccccc2)NC(=O)[C@@H]2CCCCN2C(=O)[C@H]2CCCCN2C1=O [Example 2] (cyclo(I[dPip][Pip][dF]P[dA]))	> 10000 nM
CC[C@H](C)[C@@H]1NC(=O)[C@@H](Cc2ccccc2)NC(=O)[C@@H]2CCCN2C(=O)[C@@H](CSCc2ccccc2)NC(=O)[C@@H]2CCCN2C(=O)[C@H]2CCCN2C1=O [Example 59] (cyclo([dC](Bn)P[dF]I[dP]P))	> 1000 nM

====

Parameter IC50: see the listing below.
target.under.test: uterine OT receptors (Rattus norvegicus, UniProt P70536)
Construct: from tissue; host or cells: uterus of DES-treated rats, crude membranes
experiment.description: [^3 H]OT binding to uterine OT receptors, crude membrane preparation of uteri from DES-treated rats
applied.conditions: rat uterus membranes, 1 nM [^3 H]OT; read-out: Receptor Binding Results IC50 (nM) [^3 H]OT
Square brackets hold non-standard residues; d marks the D form. Peptide text beside a SMILES is read from it. * marks the point of attachment. NMeI = CC[C@H](C)[C@H](NC)C(=O)O; dNMeF = CN[C@H](Cc1ccccc1)C(=O)O; dPip(4-aza) = O=C(O)[C@H]1CNCCN1; Pip = O=C(O)[C@@H]1CCCCN1; dPip = O=C(O)[C@H]1CCCCN1; Acm = CC(=O)NC*

molecule	IC50
CC[C@H](C)[C@@H]1NC(=O)[C@@H](Cc2ccccc2)NC(=O)[C@@H]2CCCN2C(=O)[C@@H](Cc2ccccc2)NC(=O)[C@@H]2CCCCN2C(=O)[C@H]2CNCCN2C1=O [Example 84] (cyclo(I[dPip(4-aza)][Pip][dF]P[dF]))	> 1000 nM
CC[C@H](C)[C@H]1C(=O)N2CCCC[C@@H]2C(=O)N2CCCC[C@H]2C(=O)N(C)[C@H](Cc2ccccc2)C(=O)N2CCC[C@H]2C(=O)N[C@H](Cc2ccccc2)C(=O)N1C [Example 105] (cyclo([NMeI][dPip][Pip][dNMeF]P[dF]))	> 10000 nM
CC[C@H](C)[C@@H]1NC(=O)[C@@H](Cc2ccccc2)NC(=O)[C@@H]2CCCN2C(=O)[C@@H](CSCNC(C)=O)NC(=O)[C@@H]2CCCN2C(=O)[C@H]2CCCN2C1=O [Example 58] (cyclo([dC](Acm)P[dF]I[dP]P))	> 10000 nM

====

target.under.test: uterine OT receptors (Rattus norvegicus, UniProt P70536)
Construct: from tissue; host or cells: uterus of DES-treated rats, crude membranes
Sequence (P70536 1-388): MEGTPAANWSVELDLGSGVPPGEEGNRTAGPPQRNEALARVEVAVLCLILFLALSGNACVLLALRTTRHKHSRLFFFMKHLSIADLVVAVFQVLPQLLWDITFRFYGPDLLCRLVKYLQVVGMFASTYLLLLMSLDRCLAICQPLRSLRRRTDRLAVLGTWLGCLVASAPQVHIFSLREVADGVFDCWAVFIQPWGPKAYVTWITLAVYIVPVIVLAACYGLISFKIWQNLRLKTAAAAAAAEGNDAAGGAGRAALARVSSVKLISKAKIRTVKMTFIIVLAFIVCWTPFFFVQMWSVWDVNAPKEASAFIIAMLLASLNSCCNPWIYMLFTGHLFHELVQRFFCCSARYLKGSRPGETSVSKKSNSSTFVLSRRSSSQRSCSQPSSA
experiment.description: [^3 H]OT binding to uterine OT receptors, crude membrane preparation of uteri from DES-treated rats
applied.conditions: rat uterus membranes, 1 nM [^3 H]OT; read-out: Receptor Binding Results IC50 (nM) [^3 H]OT
Square brackets hold non-standard residues; d marks the D form. Peptide text beside a SMILES is read from it. dChg = N[C@@H](C(=O)O)C1CCCCC1; dPhg = N[C@@H](C(=O)O)c1ccccc1; Chg = N[C@H](C(=O)O)C1CCCCC1; Phg = N[C@H](C(=O)O)c1ccccc1
measurement.name: IC50

compound	recorded.value
CC[C@H](C)[C@@H]1NC(=O)[C@@H](Cc2ccccc2)NC(=O)[C@@H]2CCCN2C(=O)[C@@H](Cc2ccccc2)NC(=O)[C@H](c2ccccc2)NC(=O)[C@@H](c2ccccc2)NC1=O [Example 70] (cyclo(I[dPhg][Phg][dF]P[dF]))	> 10000 nM
O=C1N[C@H](Cc2ccccc2)C(=O)N2CCC[C@H]2C(=O)N[C@H](Cc2ccccc2)C(=O)N2CCC[C@H]2C(=O)N2CCC[C@@H]2C(=O)N2CCC[C@@H]12 [Example 64] (cyclo([dF]P[dF]P[dP]P))	> 10000 nM
CC[C@H](C)[C@@H]1NC(=O)[C@@H](Cc2ccccc2)NC(=O)[C@@H]2CCCN2C(=O)[C@@H](Cc2ccccc2)NC(=O)[C@H](C2CCCCC2)NC(=O)[C@@H](C2CCCCC2)NC1=O [Example 65] (cyclo([Chg][dF]P[dF]I[dChg]))	> 10000 nM

====

target.under.test: uterine OT receptors (Rattus norvegicus)
Construct: from tissue; host or cells: uterus of DES-treated rats, crude membranes
experiment.description: [^3 H]OT binding to uterine OT receptors, crude membrane preparation of uteri from DES-treated rats
applied.conditions: rat uterus membranes, 1 nM [^3 H]OT; read-out: Receptor Binding Results IC50 (nM) [^3 H]OT
Square brackets hold non-standard residues; d marks the D form. Peptide text beside a SMILES is read from it. dNMeF = CN[C@H](Cc1ccccc1)C(=O)O; hPhe = N[C@@H](CCc1ccccc1)C(=O)O; Pip = O=C(O)[C@@H]1CCCCN1; dPip = O=C(O)[C@H]1CCCCN1

compound	target.under.test	IC50
CN1C(=O)[C@@H]2CCCCN2C(=O)[C@H]2CCCCN2C(=O)[C@H](CCc2ccccc2)NC(=O)[C@@H](Cc2c[nH]c3ccccc23)NC(=O)[C@@H]2CCCN2C(=O)[C@H]1Cc1ccccc1 [Example 32] (cyclo(P[dW][hPhe][dPip][Pip][dNMeF]))	uterine OT receptors (Rattus norvegicus)	> 1000 nM
CC[C@H](C)[C@@H]1NC(=O)[C@@H](Cc2ccccc2)NC(=O)[C@@H]2CCCN2C(=O)[C@@H](Cc2ccccc2)NC(=O)[C@H](C)NC(=O)[C@@H](C)NC1=O [Example 51] (cyclo(A[dF]P[dF]I[dA]))	uterine OT receptors (Rattus norvegicus)	> 10000 nM
CCOc1ccc(C[C@H]2NC(=O)[C@@H]3CCCN3C(=O)[C@@H](Cc3ccccc3)NC(=O)[C@H](CC(N)=O)NC(=O)[C@@H]([C@H](C)O)NC(=O)[C@H]([C@@H](C)CC)NC2=O)cc1 [Example 99] (cyclo([dY](Et)I[dT]N[dF]P))	uterine OT receptors (Rattus norvegicus)	> 10000 nM
C[C@@H]1NC(=O)[C@@H](Cc2ccccc2)NC(=O)[C@@H]2CCCN2C(=O)[C@@H](Cc2ccccc2)N(C)C(=O)[C@@H]2CCCCN2C(=O)[C@H]2CCCCN2C1=O [Example 9] (cyclo(A[dPip][Pip][dNMeF]P[dF]))	uterine OT receptors (Rattus norvegicus)	> 10000 nM
